This collection of values is drawn from patent US8349828B2.

Please consider the recorded MIC for M. catarrhalis A894 in what follows.

compound	attributeMeasured	observedMeasurement
O=C1COc2ccc(N3C[C@@H](CNCC4Cc5c(F)ccc6ccc(=O)n(c56)C4)OC3=O)cc2N1 (mixture of isomers)	MIC	≤ 0.063 µg/mL
O=C1COc2ccc(N3C[C@@H](CCNCC4Cc5c(F)ccc6c5N4C(=O)CC6)OC3=O)cc2N1 (mixture of isomers)	MIC	≤ 0.063 µg/mL
O=C1CSc2ccc(N3C[C@@H](CCNCC4Cc5ccnc6ccc(=O)n4c56)OC3=O)cc2N1 (mixture of isomers)	MIC	2 µg/mL
O=C1CSc2ccc(N3C[C@@H](CNCC4Cc5c(F)ccc6ccc(=O)n(c56)C4)OC3=O)cc2N1 (mixture of isomers)	MIC	≤ 0.063 µg/mL
O=C1CSc2ccc(N3C[C@H](CCNC[C@@H]4Cc5c(F)ccc6ccc(=O)n4c56)OC3=O)cc2N1	MIC	≤ 0.063 µg/mL

Would you kindly look at the next entry?
Exercise: Write MIC of O=C1CSc2ccc(N3C[C@@H](CNCC4Cc5c(F)cnc6ccc(=O)n(c56)C4)OC3=O)cc2N1 (mixture of isomers) ; system used: M. catarrhalis A894
Key: ≤ 0.063 µg/mL
